# Peroxisome proliferator-activated receptor delta (Homo sapiens, UniProt Q03181): Ki values follow
# Sequence (Q03181 whole entry): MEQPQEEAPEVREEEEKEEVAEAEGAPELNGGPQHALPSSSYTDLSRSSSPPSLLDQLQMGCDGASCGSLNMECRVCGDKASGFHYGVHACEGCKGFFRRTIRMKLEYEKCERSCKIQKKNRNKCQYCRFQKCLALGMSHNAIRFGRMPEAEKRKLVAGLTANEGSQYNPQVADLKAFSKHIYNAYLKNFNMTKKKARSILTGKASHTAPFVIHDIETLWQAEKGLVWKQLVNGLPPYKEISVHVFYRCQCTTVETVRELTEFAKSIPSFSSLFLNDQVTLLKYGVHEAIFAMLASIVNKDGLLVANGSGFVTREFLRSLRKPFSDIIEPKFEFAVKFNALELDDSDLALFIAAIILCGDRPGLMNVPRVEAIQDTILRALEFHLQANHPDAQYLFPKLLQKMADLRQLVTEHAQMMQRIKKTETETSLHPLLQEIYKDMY
measuredMetric: Ki (nM)

1. CCC#CCOc1cc(COc2cccc(C(F)(F)F)c2)ccc1Sc1ccc(OCC(=O)O)c2c1CCCC2; 35
2. O=C(O)COc1ccc(Sc2ccc(COc3ccc(C(F)(F)F)cc3)cc2Cl)c2c1CCCC2; 7
3. O=C(O)COc1ccc(Sc2ccc(COc3ccc(C(F)(F)F)cc3)cc2OCC#CCO)c2c1CCCC2; 2
4. CCC#CCOc1cc(CNc2ccc(C(F)(F)F)cc2)ccc1Sc1ccc(OCC(=O)O)c2c1CCCC2; 660
5. CCC#CCOc1cc(COCC2CC2)ccc1Sc1ccc(OCC(=O)O)c2c1CCCC2; 120
6. COCCOc1cc(COc2ccc(C(F)(F)F)cc2)ccc1Sc1ccc(OCC(=O)O)c(C)c1C; 11
7. Cc1c(OCC(=O)O)ccc(Sc2ccc(COc3ccc(C(F)(F)F)cc3)cc2OCc2cccnc2)c1C; 36
8. Cc1c(OCC(=O)O)ccc(Sc2ccc(COc3ccc(C(F)(F)F)cc3)cc2OCCN2CCOCC2)c1C; 270
9. CCC#CCOc1cc(COC2CCOCC2)ccc1Sc1ccc(OCC(=O)O)c2c1CCCC2; 1200
10. CCC#CCOc1cc(COc2ccc(Cl)cc2)ccc1Sc1ccc(OCC(=O)O)c2c1CCCC2; 36
11. CCC#CCOc1cc(COc2ccc(Cl)cc2C)ccc1Sc1ccc(OCC(=O)O)c2c1CCCC2; 28
12. Cc1c(OCC(=O)O)ccc(Sc2ccc(COc3ccc(C(F)(F)F)cc3)cc2OCC#N)c1C; 16
13. CCC#CCOc1cc(COc2ccccc2C(F)(F)F)ccc1Sc1ccc(OCC(=O)O)c2c1CCCC2; 120
14. CCC#CCOc1cc(COC2CCCC2)ccc1Sc1ccc(OCC(=O)O)c2c1CCCC2; 150
15. CCC#CCOc1cc(COc2ccc(C(F)(F)F)cn2)ccc1Sc1ccc(OCC(=O)O)c2c1CCCC2; 11

Data provenance: ChEMBL document CHEMBL1136970
